Molecular target: T1, HetR D256A (Anabaena sp. PCC 7120, UniProt P27709 1-299, D256A)
T1 construct: HetR of Anabaena sp; PCC 7120, point mutant made from the plasmid of wild-type HetR; source: E. coli, purified in the same manner as the wild-type protein
T1 sequence (looked up): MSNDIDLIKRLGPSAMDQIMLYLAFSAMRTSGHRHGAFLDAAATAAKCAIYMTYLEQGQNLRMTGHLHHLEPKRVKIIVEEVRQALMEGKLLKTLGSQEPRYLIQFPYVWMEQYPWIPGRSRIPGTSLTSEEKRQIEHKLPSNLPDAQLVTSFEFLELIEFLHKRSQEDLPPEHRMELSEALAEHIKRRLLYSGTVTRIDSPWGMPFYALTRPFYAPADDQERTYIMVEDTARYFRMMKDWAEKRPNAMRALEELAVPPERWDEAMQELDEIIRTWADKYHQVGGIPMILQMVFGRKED
Assay: ITC; iTC200, 25 °C; protein in the sample cell (10 or 50 μM), PatS6 in the syringe (150 or 750 μM; 2 mM for HetR_(Hood)); 1 M NaCl, 5% (v/v) glycerol, 10 mM Tris-Cl, pH 7.8
Details: both partners purified
parameter-measured: pKd
Note: pKd values are expressed as the negative base-10 logarithm of concentration in M.

-- ask Please give the measured pKd for this binder: ERGSGR (PatS-derived hexapeptide; RGSGR is the C-terminal five residues of PatS of Anabaena sp; PCC 7120; source: synthetic peptide (GL Biochem, Shanghai)) [PatS6 (PatS-derived hexapeptide ERGSGR)]
-- reply 6.37
